Reference source: patent US10316017B2

Recorded IC50, one value per entry.
- experimental.target: human Cot catalytic domain (30-397 amino acids) (Homo sapiens, UniProt P41279)
- Construct: Purified recombinant human Cot catalytic domain (30-397 amino acids) was purchased from Cama Biosciences; purchased Cama Biosciences (so in the source)
- Sequence (P41279 30-397): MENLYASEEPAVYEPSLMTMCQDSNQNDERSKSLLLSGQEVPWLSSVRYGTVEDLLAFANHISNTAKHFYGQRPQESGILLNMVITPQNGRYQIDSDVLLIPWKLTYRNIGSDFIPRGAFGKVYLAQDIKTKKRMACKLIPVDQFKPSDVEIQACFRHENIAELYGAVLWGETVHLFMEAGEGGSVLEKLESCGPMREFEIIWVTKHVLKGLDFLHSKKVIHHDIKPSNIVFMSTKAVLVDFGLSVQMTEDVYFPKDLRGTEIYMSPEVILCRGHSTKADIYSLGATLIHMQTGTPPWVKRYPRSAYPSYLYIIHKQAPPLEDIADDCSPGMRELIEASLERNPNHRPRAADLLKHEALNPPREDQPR
- test.details: High Throughput Cot Biochemical Assay (KinEASE TR-FRET)
- run.conditions: Cot biochemical HTRF (KinEASE TR-FRET) assay; read-out: IC50 HTRF
Returns: string containing the numeric result and its unit.

Please review the entries below; each comes with its answer.
N#Cc1cnc2c(Cl)cc(N[C@@H](c3ccccc3)c3cn(C4CCNCC4)nn3)cc2c1Nc1ccc(F)c(Cl)c1 [Example 778]: 2 nM
N#Cc1cnc2c(Cl)cc(N[C@@H](c3ccccc3)c3cn(C4C5CN(C6COC6)CC54)nn3)cc2c1Nc1ccc(F)c(Cl)c1 (stereo partly drawn) [Example 574]: 42 nM

Per the record, CC(C)(C)N1CCC(n2cc([C@@H](Nc3cc(Cl)c4ncc(C#N)c(NCc5cccc(F)c5F)c4c3)c3ccccc3)nn2)CC1 [Example 617] has IC50 of 43 nM

----------
- experimental.target: human Cot catalytic domain (30-397 amino acids) (Homo sapiens, UniProt P41279)
- Construct: Purified recombinant human Cot catalytic domain (30-397 amino acids) was purchased from Cama Biosciences; purchased Cama Biosciences (so in the source)
- test.details: High Throughput Cot Biochemical Assay (KinEASE TR-FRET)
- run.conditions: Cot KinEASE TR-FRET, 400 μM ATP; read-out: IC50 HTRF
measured.attribute: IC50 (nM)
Express the result in nM but write the number alone.

CC(C)(C)CNc1c(C#N)cnc2c(Cl)cc(N[C@H](c3cn(C4CC4)nn3)c3cccc4ccccc34)cc12 [Example 1003]: 19
Cc1c(-c2ncco2)cccc1[C@H](Nc1cc(C#N)c2ncc(C#N)c(NCC(C)(C)C)c2c1)c1cn(C2(C(F)F)CC2)nn1 [Example 1056]: 2

Now examine the next entry.
Reading of IC50 for CC(C)(CO)CNc1c(C#N)cnc2c(C#N)cc(N[C@H](c3cn(C4(C)CC4)nn3)c3ccccc3Cl)cc12 [Example 1035] with human Cot catalytic domain (30-397 amino acids) (Homo sapiens, UniProt P41279): 19

----------
- experimental.target: human Cot catalytic domain (30-397 amino acids) (Homo sapiens, UniProt P41279)
- Construct: Purified recombinant human Cot catalytic domain (30-397 amino acids) was purchased from Cama Biosciences; purchased Cama Biosciences (so in the source)
- test.details: High Throughput Cot Biochemical Assay (KinEASE TR-FRET)
- run.conditions: Cot KinEASE TR-FRET, 400 μM ATP; read-out: IC50 HTRF
- From the text: Example 61: High Throughput Cot Biochemical Assay In this assay, Cot-catalyzes the phosphorylation of a XL665-labeled peptide substrate. Europium conjugated phospho-tyrosine specific antibody binds the resulting phosphorylated peptide. […] Purified recombinant human Cot catalytic domain (30-397 amino acids) was purchased from Cama Biosciences. […]
measured.attribute: pIC50
The scale used: pIC50 is minus the common logarithm of the concentration in molar units.

Example entries begin here.
CN(C)CCNCc1cccc([C@H](Nc2cc(Cl)c3ncc(C#N)c(Nc4ccc(F)c(Cl)c4)c3c2)c2cn(C3CCN(C(C)(C)C)CC3)nn2)c1 [Example 726]: 7.41
N#Cc1cnc2c(Cl)cc(NC(c3ccccc3)c3c[nH]nn3)cc2c1Nc1ccc(F)c(Cl)c1 (stereo not drawn) [Example 888]: 7.30
N#Cc1cnc2c(Cl)cc(N[C@@H](c3ccccc3)c3cn(C4CC5(CNC5)C4)nn3)cc2c1Nc1ccc(F)c(Cl)c1 [Example 775]: 8.30
CC(C)(C)CNc1c(C#N)cnc2c(Cl)cc(N[C@@H](c3ccc(F)cc3)c3cn(C4(C(N)=O)CCC4)nn3)cc12 [Example 992]: 8.30

Now consider the entry below.
For reference, reported pIC50 for CCN1CCC(n2cc([C@@H](Nc3cc(Cl)c4ncc(C#N)c(NCC(C)(C)C)c4c3)c3ccc(Cl)cc3)nn2)CC1 [Example 954] stands at 8.30
